- SYSTEM UNDER TEST: Mitogen-activated protein kinase kinase kinase kinase 4 (Homo sapiens)
- CONDITION CONTEXT: at 0.1 µM
- Description: GSK_PKIS: MAP4K4 mean inhibition at 0.1 uM [Nanosyn]
Could you label it criterion met if measured inhibition is 4% or higher, and criterion not met otherwise?

Solved cases below.
CNC(=O)c1cncc(/C=C/c2c(C)cccc2C)c1: criterion met
Fc1ccc(-c2nc3n(c2-c2ccncc2)CCS3)cc1: criterion met

(Q) Determine whether measured inhibition meets or exceeds 4% for "COc1ccc2cc(-c3c(-c4ccncc4)nc(-c4ccc(S(C)(=O)=O)cc4C)n3C)ccc2c1"
(A) criterion met

(Q) Next record, please: "COC(=O)Nc1nc2ccc(Sc3ccc(NC(=O)Nc4cc(C(F)(F)F)ccc4F)cc3)cc2[nH]1"
(A) criterion met

(Q) Now the compound "Fc1ccc(-c2ncn(CCCN3CCOCC3)c2-c2ccncc2)cc1"
(A) criterion not met

(Q) Query "NC(=O)c1cc(-c2ccncc2)cc(-c2ccccc2)c1N" next
(A) criterion met

(Q) Next up: "COc1cc2ncn(-c3cc(OCc4cccs4)c(C(N)=O)s3)c2cc1OC"
(A) criterion met

(Q) Follow-up entry: "Cc1ccc(C(=O)NC2CCC2)cc1-c1ccc(C(=O)NCC2CC2)cc1"
(A) criterion not met

(Q) Please give the result for "O=C1Nc2ccccc2/C1=C/Nc1ccc(-n2cncn2)cc1" too.
(A) criterion met

(Q) Could you do the same for "CS(=O)(=O)CCNCc1ccc(-c2ccc3ncnc(Nc4ccc(OCc5ccccc5)c(Br)c4)c3c2)o1" , please?
(A) criterion not met

----------
- SYSTEM UNDER TEST: Serine/threonine-protein kinase MRCK beta (Homo sapiens) (UniProt Q9Y5S2);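 note: averaged inhibition values against MRCK beta, part of the GSK PKIS profiling dataset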
- Sequence (Q9Y5S2 whole entry): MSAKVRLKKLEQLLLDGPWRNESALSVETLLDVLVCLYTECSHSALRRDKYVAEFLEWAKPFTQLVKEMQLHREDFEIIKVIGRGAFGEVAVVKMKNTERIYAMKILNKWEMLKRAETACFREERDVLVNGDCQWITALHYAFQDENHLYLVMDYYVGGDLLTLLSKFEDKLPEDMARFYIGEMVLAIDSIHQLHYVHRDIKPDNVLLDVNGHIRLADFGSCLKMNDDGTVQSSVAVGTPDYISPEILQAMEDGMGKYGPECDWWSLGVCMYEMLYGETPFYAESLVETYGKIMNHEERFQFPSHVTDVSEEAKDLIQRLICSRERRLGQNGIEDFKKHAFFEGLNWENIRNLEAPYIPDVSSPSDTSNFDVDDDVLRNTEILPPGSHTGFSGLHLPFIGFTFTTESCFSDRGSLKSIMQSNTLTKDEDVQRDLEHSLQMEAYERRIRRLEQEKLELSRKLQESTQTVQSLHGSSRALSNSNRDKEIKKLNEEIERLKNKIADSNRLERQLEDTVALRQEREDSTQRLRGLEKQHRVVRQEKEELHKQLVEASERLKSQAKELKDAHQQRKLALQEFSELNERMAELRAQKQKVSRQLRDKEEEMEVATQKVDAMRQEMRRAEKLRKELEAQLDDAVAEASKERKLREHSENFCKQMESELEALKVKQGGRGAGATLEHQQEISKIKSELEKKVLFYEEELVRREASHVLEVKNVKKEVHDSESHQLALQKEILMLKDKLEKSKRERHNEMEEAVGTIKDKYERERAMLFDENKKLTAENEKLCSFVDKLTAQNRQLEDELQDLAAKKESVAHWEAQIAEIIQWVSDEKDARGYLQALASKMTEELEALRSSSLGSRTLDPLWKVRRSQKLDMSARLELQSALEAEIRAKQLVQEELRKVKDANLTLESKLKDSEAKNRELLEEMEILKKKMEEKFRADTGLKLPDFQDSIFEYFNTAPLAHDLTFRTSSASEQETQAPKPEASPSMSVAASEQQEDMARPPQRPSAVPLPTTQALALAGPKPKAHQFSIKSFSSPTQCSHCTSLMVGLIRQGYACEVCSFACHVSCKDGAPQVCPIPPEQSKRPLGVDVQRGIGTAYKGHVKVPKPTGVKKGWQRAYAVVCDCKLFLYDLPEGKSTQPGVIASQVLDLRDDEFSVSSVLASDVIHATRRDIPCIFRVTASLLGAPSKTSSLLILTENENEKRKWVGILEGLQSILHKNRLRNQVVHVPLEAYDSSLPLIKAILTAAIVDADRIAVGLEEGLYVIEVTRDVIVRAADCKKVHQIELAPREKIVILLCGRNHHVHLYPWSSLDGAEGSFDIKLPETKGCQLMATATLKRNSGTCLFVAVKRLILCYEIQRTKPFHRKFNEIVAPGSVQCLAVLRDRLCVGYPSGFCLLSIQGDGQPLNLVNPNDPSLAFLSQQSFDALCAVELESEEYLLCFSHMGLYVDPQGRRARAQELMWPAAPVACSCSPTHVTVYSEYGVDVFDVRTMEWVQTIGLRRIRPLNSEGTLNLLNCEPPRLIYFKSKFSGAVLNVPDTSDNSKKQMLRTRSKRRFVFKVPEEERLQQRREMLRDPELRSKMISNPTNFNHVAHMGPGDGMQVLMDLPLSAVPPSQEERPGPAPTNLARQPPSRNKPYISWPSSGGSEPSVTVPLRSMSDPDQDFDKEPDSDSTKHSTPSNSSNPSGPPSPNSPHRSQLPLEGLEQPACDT
- CONDITION CONTEXT: at 1 µM
OBSERVED PROPERTY: inhibition
Write the quantity with the unit trailing the number.

In the examples that follow, each entry is paired with its recorded inhibition.
COc1cc2ncn(-c3cc(OCc4cccs4)c(C(N)=O)s3)c2cc1OC: 1.38%
COc1cc2ncn(-c3cc(OCc4ccccc4C(F)(F)F)c(C(C)=O)s3)c2cc1OC: 0.86%
COc1cc(C)c(N(C)C(=O)CN(C)C)cc1Nc1nc(Nc2cccc(F)c2C(N)=O)c2cc[nH]c2n1: 1.21%
NS(=O)(=O)c1ccc(N/N=C2\C(=O)Nc3ccc(-c4cnco4)cc32)cc1: 6.65%
NCc1ccc(-n2c(-c3nonc3N)nc3cnccc32)cc1: 83.5%
C[C@@H](Oc1cc(-n2cnc3ccc(OC4CCN(C)CC4)cc32)sc1C(N)=O)c1ccccc1Cl: 2.98%

(Q) Item under review: "COc1ccc(C2=C(N3CCc4ccccc43)C(=O)NC2=O)cc1" . Reported inhibition?
(A) 0.12%

(Q) Same for "COc1ccc(-c2ccc3c(NC(=O)C4CC4)n[nH]c3n2)cc1"
(A) 0.25%

(Q) Would you mind doing "NS(=O)(=O)c1ccc(Nc2cc(-c3ccc(O)c(F)c3)n[nH]2)cc1" as well?
(A) 0.15%

(Q) What do we get for "NC(=O)c1cc(-c2ccc(F)cc2)cc(-c2ccncc2)c1N" ?
(A) -2.26%

----------
- SYSTEM UNDER TEST: Serine/threonine-protein kinase pim-2 (Homo sapiens) (UniProt Q9P1W9);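 note: reported value is the mean percent inhibition of PIM2, measured in the GSK PKIS kinase inhibitor set screen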
- Sequence (Q9P1W9 whole entry, looked up): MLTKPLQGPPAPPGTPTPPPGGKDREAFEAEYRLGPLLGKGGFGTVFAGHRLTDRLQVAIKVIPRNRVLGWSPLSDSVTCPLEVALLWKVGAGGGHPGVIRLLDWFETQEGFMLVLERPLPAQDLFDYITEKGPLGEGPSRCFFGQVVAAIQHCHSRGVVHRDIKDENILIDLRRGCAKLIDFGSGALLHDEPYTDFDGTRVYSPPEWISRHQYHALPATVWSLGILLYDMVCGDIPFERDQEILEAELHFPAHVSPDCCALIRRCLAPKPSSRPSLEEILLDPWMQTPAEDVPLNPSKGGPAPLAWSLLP
- CONDITION CONTEXT: at 0.1 µM
# Lookup of reported inhibition keyed by entry
Could you give me the number in %? Just the number is fine.

c1ccc(-c2n[nH]cc2-c2ccnc(-c3ccc(OCCN4CCOCC4)cc3)c2)nc1: 7.01
CN1CCN(CCCNc2nc3ccc(Oc4ccc(NC(=O)Nc5cc(C(F)(F)F)ccc5F)cc4)cc3[nH]2)CC1: -1.87

(Q) Name the recorded inhibition for "CCc1cccc(CC)c1/C=C/c1cncc(C(=O)NC)c1" .
(A) -0.07

----------
Each entry below carries its recorded inhibition.
- SYSTEM UNDER TEST: Mitogen-activated protein kinase kinase kinase kinase 2 (Homo sapiens);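 note: reported value is a mean of MAP4K2 inhibition at 1 µM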
- CONDITION CONTEXT: at 1 µM
# number only, unit % dropped from output

Guide cases for inhibition, answers given:
COC(=O)Nc1nc2ccc(Sc3ccc(NC(=O)Nc4cc(C(F)(F)F)ccc4F)cc3)cc2[nH]1: 27.5
NC(=O)c1cc(-c2ccncc2)cc(-c2ccccc2)c1N: 0.97
COc1ccc(C2=C(N3CCc4ccccc43)C(=O)NC2=O)cc1: 4.95

(Q) Recorded inhibition for "NC(=O)c1ccc(Oc2nccc(-c3c(-c4ccc(F)cc4)ncn3C3CCNCC3)n2)cc1" , please?
(A) 1.55

(Q) # repeat for Nc1nccc(-c2c(-c3ccc(F)cc3)ncn2C2CCC(O)CC2)n1 (stereo not given)
(A) 16.2

(Q) Now give it for "CS(=O)(=O)CCNCc1ccc(-c2ccc3ncnc(Nc4ccc(OCc5ccccc5)c(Br)c4)c3c2)o1" too.
(A) 0.4

(Q) Check "CN(C)CCCNc1nccc(-c2c(-c3ccc(F)cc3)nn3cc(C(F)(F)F)ccc23)n1" too.
(A) 7.36

(Q) Param item: "Cc1ccc(NC(=O)c2ccoc2)cc1-c1ccc(C(=O)NCC2CC2)cc1"
(A) 0.39

----------
inhibition values for the molecules below.
- SYSTEM UNDER TEST: Maternal embryonic leucine zipper kinase (Homo sapiens);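 note: each value is the mean inhibition of MELK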
- CONDITION CONTEXT: at 1 µM
Lab book: enter the figure in %, no units written.

The following molecules have reported results that may help.
Fc1ccc(-c2ncn(C3CCNCC3)c2-c2ccnc(Oc3ccc4c(c3)OCO4)n2)cc1: 6.41
COc1ccc(-c2ccc3c(NC(=O)C4CC4)n[nH]c3n2)cc1: -0.77
NCc1ccc(-n2c(-c3nonc3N)nc3cnccc32)cc1: 88.2
c1ccc(-c2n[nH]cc2-c2ccnc(-c3ccc(OCCN4CCOCC4)cc3)c2)nc1: 3.77
Nc1nccc(-c2c(-c3ccc(F)cc3)ncn2C2CCC(O)CC2)n1 (stereo unspecified): 1.19
COc1cc2ncn(-c3cc(OCc4ccccc4C(F)(F)F)c(C(C)=O)s3)c2cc1OC: 1.83
Fc1ccc(-c2ncn(C3CCNCC3)c2-c2ccnc(Oc3ccc(F)c(F)c3)n2)cc1: 7.03
CCc1cccc(CC)c1/C=C/c1cncc(C(=O)NC)c1: 3.83

Kindly review the next molecule as well.
(Q) Lookup: inhibition / Maternal embryonic leucine zipper kinase (Homo sapiens) / "c1ccc(Oc2ccc(Nc3ncc(-c4ccccc4)o3)cc2)cc1"
(A) 2.86

----------
- SYSTEM UNDER TEST: Hepatocyte growth factor receptor (Homo sapiens) (UniProt P08581);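 note: reported values are means of MET inhibition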
- Sequence (P08581 whole entry): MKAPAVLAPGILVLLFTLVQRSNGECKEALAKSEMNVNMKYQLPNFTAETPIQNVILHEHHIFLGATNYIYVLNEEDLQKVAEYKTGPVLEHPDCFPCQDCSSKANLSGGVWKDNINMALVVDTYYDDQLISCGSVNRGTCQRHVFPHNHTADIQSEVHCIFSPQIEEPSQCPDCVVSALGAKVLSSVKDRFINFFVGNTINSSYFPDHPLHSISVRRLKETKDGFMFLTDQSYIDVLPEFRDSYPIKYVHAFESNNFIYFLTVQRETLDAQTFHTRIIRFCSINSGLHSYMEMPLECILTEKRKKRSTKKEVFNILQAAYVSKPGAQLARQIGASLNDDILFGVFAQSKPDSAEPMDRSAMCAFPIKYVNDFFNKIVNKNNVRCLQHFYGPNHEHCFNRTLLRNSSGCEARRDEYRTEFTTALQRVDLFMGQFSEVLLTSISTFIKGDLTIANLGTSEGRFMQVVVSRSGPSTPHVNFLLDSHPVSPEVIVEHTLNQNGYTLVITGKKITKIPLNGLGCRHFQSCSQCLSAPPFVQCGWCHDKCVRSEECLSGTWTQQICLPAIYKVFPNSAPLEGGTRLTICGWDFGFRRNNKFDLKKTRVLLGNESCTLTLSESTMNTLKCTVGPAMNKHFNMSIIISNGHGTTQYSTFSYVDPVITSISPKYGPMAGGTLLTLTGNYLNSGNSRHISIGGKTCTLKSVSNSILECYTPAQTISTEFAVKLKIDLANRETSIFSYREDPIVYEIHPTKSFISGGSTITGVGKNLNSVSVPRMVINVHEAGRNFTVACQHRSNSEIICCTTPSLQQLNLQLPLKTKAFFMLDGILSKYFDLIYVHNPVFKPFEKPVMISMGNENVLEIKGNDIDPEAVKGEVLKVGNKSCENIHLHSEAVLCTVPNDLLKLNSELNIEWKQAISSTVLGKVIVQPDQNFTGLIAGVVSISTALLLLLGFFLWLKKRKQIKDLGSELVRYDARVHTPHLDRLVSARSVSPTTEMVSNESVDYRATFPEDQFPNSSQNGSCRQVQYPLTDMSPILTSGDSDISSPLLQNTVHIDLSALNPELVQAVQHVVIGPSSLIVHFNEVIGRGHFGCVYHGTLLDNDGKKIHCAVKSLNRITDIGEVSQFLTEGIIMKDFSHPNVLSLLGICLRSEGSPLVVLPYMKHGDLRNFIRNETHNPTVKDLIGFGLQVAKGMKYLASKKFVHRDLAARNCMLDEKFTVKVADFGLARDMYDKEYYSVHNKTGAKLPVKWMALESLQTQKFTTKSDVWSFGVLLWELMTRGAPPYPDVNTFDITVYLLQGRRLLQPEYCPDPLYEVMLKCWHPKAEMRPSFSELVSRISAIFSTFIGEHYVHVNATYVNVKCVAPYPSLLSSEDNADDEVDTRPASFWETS
- CONDITION CONTEXT: at 0.1 µM
OBSERVED PROPERTY: inhibition
Remember to put the unit after the number in your answer.

CCC(=O)Nc1ccc(C)c(-c2ccc(C(=O)NCC3CC3)cc2)c1: 6.02%
CS(=O)(=O)CCNCc1ccc(-c2ccc3ncnc(Nc4ccc(OCc5ccccc5)c(Br)c4)c3c2)o1: 1.81%
CNC(=O)c1cncc(/C=C/c2c(C)cccc2C)c1: -0.92%
C[C@@H](Oc1cc(-n2cnc3ccc(OC4CCN(C)CC4)cc32)sc1C(N)=O)c1ccccc1Cl: 7.84%
COc1cccc(/C=N/Nc2ncnc3c2cnn3-c2cccc(OC)c2)c1: 4.9%

(Q) Which inhibition is reported with Hepatocyte growth factor receptor (Homo sapiens) (UniProt P08581) for this entry: "N#Cc1ccc(Oc2nccc(-c3c(-c4ccc(F)cc4)ncn3C3CCNCC3)n2)cc1" ?
(A) 3.69%

(Q) Repeat for the following compound: "Fc1ccc(-c2ncn(C3CCNCC3)c2-c2ccnc(Oc3ccc4c(c3)OCO4)n2)cc1"
(A) 2.27%

(Q) Next compound: "COC(=O)Nc1nc2ccc(Sc3ccc(NC(=O)Nc4cc(C(F)(F)F)ccc4F)cc3)cc2[nH]1"
(A) 1.57%

(Q) Proceed to "COc1cccc(-n2cnc3c(N/N=C/c4ccncc4)ncnc32)c1"
(A) 0.87%

(Q) Also "O=C1Nc2ccc(I)cc2C1=Cc1cc(Br)c(O)c(Br)c1" ?
(A) 1.23%

----------
- SYSTEM UNDER TEST: Mitogen-activated protein kinase kinase kinase kinase 4 (Homo sapiens)
- CONDITION CONTEXT: at 1 µM
Recorded inhibition determines the label; the label ranges are low bin (below 10%), mid bin (10% to below 30%), high bin (30% or more)

Cc1ccc(NC(=O)c2ccoc2)cc1-c1ccc(C(=O)NCC2CC2)cc1: low bin
NC(=O)c1cc(-c2ccncc2)cc(-c2ccccc2)c1N: high bin
NS(=O)(=O)c1ccc(Nc2cc(-c3ccc(O)c(F)c3)n[nH]2)cc1: high bin
COc1cc2ncn(-c3cc(OCCc4ccccc4)c(C(N)=O)s3)c2cc1OC: mid bin
C#Cc1cccc(Nc2ncnc3ccc(OCCCCNCCS(C)(=O)=O)cc23)c1: mid bin
O=C(Nc1ccc(Oc2ccc3[nH]c(NC(=O)c4ccccc4)nc3c2)cc1)Nc1cc(C(F)(F)F)ccc1F: low bin
COc1ccc(C2=C(N3CCc4ccccc43)C(=O)NC2=O)cc1: mid bin
O=C(Nc1n[nH]c2nc(-c3ccc(O)cc3)c(Br)cc12)C1CC1: high bin
COc1ccc2ncn(-c3cc(O[C@H](C)c4ccccc4Cl)c(C(N)=O)s3)c2c1: low bin

# next compound below
(Q) Which category does the recorded inhibition put "NS(=O)(=O)c1ccc(N/N=C2\C(=O)Nc3ccc(C(=O)NCCCn4ccnc4)cc32)cc1" in?
(A) high bin
